assay: qHTS of pediatric cancer cell lines to identify multiple opportunities for drug repurposing: Primary screen for SK-N-SH cells (AID 1347098); conditions: SK-N-SH viability, CellTiter-Glo luminescence, 48 h; series mostly up to 57 µM;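 further: DMSO served as neutral control and bortezomib at 2.3 µM as positive control; nearly all actives have a fitted effect of over 65% in size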
Results filed as inconclusive are left out. Activity calls are given as the source filed them. The call rests on the fitted dose curve; in most records, active means well fitted cell-killing curve with a large enough effect; inconclusive means small, poorly fitted or top-dose-only effect; inactive means no such curve, though single readings can be large or run the other way.
Answer with one of the outcomes true (1) = active, false (0) = inactive

Asked: Any idea what this test logged for `O=C(NCCc1c[nH]c2ccccc12)c1cccnc1` ?
Given back: false (0)

Asked: Same question for `COc1ccc(/C=N/NC(=O)c2ccncc2)cc1OC` please.
Given back: false (0)

Asked: Would you kindly repeat that for `C#C[C@]1(O)CC[C@H]2[C@@H]3[C@H](C)CC4=C(CCC(=O)C4)[C@H]3CC[C@@]21C` ?
Given back: false (0)

Asked: Repeat for the following compound: `Cc1cc(NS(=O)(=O)c2ccc(N)cc2)nc(C)n1`
Given back: false (0)

Asked: Same question, `CNCCc1ccccn1` this time
Given back: false (0)

Asked: // next record `OCCOCCN1CCN(C2=Nc3ccccc3Sc3ccccc32)CC1`
Given back: false (0)

Asked: Also `CCCCOC(=O)CC(CC(=O)OCCCC)(OC(C)=O)C(=O)OCCCC` , if possible.
Given back: false (0)

Asked: Please answer likewise for `Cc1c(-c2ccccc2)oc2c(C(=O)OCCN3CCCCC3)cccc2c1=O`
Given back: false (0)
